measured.on: Prostaglandin G/H synthase 2 (Mus musculus, UniProt Q05769, S516A)
Sequence (Q05769 18-604 S516A limits assumed): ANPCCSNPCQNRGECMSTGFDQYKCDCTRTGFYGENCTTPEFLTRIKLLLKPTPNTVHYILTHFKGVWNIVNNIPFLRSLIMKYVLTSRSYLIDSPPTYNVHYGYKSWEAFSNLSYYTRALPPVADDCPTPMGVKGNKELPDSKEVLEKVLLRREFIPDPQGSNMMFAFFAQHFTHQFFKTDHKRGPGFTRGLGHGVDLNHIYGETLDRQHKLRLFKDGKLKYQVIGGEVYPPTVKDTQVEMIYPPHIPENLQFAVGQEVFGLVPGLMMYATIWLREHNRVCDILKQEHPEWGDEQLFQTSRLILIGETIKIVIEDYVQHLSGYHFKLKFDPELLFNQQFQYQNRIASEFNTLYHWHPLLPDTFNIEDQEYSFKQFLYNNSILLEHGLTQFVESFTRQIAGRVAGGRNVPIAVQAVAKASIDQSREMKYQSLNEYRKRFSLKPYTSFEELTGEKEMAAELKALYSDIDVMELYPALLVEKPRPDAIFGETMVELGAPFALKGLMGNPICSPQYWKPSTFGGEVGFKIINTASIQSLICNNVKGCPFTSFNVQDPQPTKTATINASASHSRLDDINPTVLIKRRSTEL
protocol: Inhibition of mouse COX2 S530A mutant
measured.property: pIC50
Give bare numbers, as −log10 of the molar value.

**Query** For the record `COc1ccc2c(c1)c(CC(=O)NCCCCNC(=O)CCC(=O)O[C@H]1c3cc4c(cc3[C@@H](c3cc(OC)c(OC)c(OC)c3)[C@H]3C(=O)OC[C@@H]31)OCO4)c(C)n2C(=O)c1ccc(Cl)cc1` , what value of pIC50 is listed for Prostaglandin G/H synthase 2 (Mus musculus, UniProt Q05769, S516A)?
**Result** 7.05

---

Test system: SMMC-7721
protocol: Antiproliferative activity against human SMMC-7721 cells
Assay type: functional, cell-based
measured.property: IC50
# number then unit; no other words

**Query** May I ask what IC50 has been recorded for `COC(=O)c1ccc(-c2cn(CC(=O)O[C@H]3c4cc5c(cc4[C@@H](c4cc(OC)c(OC)c(OC)c4)[C@H]4C(=O)OC[C@@H]43)OCO5)nn2)cc1` ?
**Result** 19.6 nM

---

protocol: Selectivity ratio of IC50 for human L02 cells to IC50 for human A549 cells
Type: toxicity
protocol.conditions: read-out: Ratio IC50
measured.property: selectivity ratio

Below: 2 compounds and their reported selectivity ratio.
COc1cc([C@@H]2c3cc4c(cc3[C@H](OC(=O)CCCCC3CCSC(c5ccc(C)cc5)S3)[C@H]3COC(=O)[C@H]23)OCO4)cc(OC)c1OC (stereo partly drawn); ≥ 9.7
COc1cc([C@@H]2c3cc4c(cc3[C@H](OC(=O)CCCCC3CCSC(c5ccc(C(F)(F)F)cc5)S3)[C@H]3COC(=O)[C@H]23)OCO4)cc(OC)c1OC (stereo partly drawn); ≥ 9.7

**Query** May I ask what selectivity ratio has been recorded for COc1cc([C@@H]2c3cc4c(cc3[C@H](OC(=O)CCCCC3CCSC(c5cccc(C(F)(F)F)c5)S3)[C@H]3COC(=O)[C@H]23)OCO4)cc(OC)c1OC (stereo partly drawn) ?
**Result** ≥ 9.7

---

protocol: Cytotoxicity against human BEAS2B cells
Format: cell-based
protocol.conditions: BEAS-2B cells
measured.property: CC50

**Query** May I ask what CC50 has been recorded for CCCC(=O)OC[C@H]1O[C@@H](OC(COCc2cn([C@@H]3c4cc5c(cc4[C@@H](c4cc(OC)c(OC)c(OC)c4)[C@H]4C(=O)OC[C@@H]43)OCO5)nn2)COCc2cn([C@@H]3c4cc5c(cc4[C@@H](c4cc(OC)c(OC)c(OC)c4)[C@H]4C(=O)OC[C@@H]43)OCO5)nn2)[C@H](OC(=O)CCC)[C@@H](OC(=O)CCC)[C@@H]1OC(=O)CCC (stereo partly specified) ?
**Result** 15.4 µM

---

protocol: Plasma clearance in Sprague-Dawley rat at 2.5 mg/kg, iv measured after 5 to 1440 mins by LC-MS/MS analysis
Type: ADME, organism-based
Set-up: dose 2.5 mg/kg, time upper 1440 min, time lower 5 min
protocol.conditions: 2.5 mg/kg
measured.property: AUC (ng·h/mL)
One number for each entry, in ng·h/mL.

**Query** May I ask what AUC has been recorded for COc1cc([C@@H]2c3cc4c(cc3[C@@H](O[C@@H]3O[C@@H]5CO[C@@H](C)O[C@H]5[C@H](O)[C@H]3O)[C@H]3COC(=O)[C@H]23)OCO4)cc(OC)c1O [ETOPOSIDE] ?
**Result** 933
